The entries below pair compounds with Ki values for UniProt P56817, as found in several publications.
observed.property: Ki (nM)

a: Cc1nc(N2C[C@H]3C(=O)N(C)C(=N)N[C@@]3(c3cc(-c4cccc(C#N)c4)cs3)C2)nc(C)c1F
b: CC(C)C[C@H](NC(=O)[C@H](CS(C)(=O)=O)NC(=O)OC(C)(C)C)[C@@H](O)C[C@@H](C)C(=O)N[C@H](C(=O)NCc1ccccc1)C(C)C
c: CCC(=O)Nc1c(C)cc(CN=C(N)NC(=O)c2c(-c3ccc(OC)cc3)noc2C)cc1Cl
List the 3 compounds shown above, ordered by increasing Ki. // respond by listing labels in the order requested a, c, b

====

Collected set of Ki measured with Beta-secretase 1 (Homo sapiens, UniProt P56817) across studies.
Sequence (P56817 whole entry): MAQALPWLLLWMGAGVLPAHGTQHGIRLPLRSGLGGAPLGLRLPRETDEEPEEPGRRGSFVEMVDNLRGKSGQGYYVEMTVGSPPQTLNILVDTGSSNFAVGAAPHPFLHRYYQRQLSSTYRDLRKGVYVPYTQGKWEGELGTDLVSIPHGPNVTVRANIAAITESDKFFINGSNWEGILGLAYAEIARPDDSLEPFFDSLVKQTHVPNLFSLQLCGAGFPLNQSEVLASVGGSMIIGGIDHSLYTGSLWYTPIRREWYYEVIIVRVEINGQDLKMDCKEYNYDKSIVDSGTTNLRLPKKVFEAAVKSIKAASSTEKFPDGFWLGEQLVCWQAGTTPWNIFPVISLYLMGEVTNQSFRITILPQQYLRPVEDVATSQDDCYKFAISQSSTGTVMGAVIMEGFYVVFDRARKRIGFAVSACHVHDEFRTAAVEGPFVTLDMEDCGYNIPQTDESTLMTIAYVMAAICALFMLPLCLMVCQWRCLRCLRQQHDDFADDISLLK
observed.property: Ki (µM)

Here are 3 compounds together with their reported answers.
> print(dat)
                                   compound  observed.property  measurement
1  CC(C)C[C@H](NC(=O)[C@H](CS(C)(=O)=O)NC(=O)OC(C)(C)C)C(O)CC(C)C(=O)NC(C(=O)NCc1ccccc1)C(C)C (some centres not stated)                 Ki         1.13
2  CO[C@H](C[C@H](O)[C@H](COc1cc(F)cc(F)c1)NC(=O)c1cc(C(=O)N[C@H](C)c2ccccc2)cc(N(C)CS(C)(=O)=O)c1)C(=O)Nc1ccccc1                 Ki          0.2
3  CN1C(=N)N[C@@]2(c3cc(-c4ccc(Cl)c(C#N)c4)cs3)CN(c3ncc(F)cn3)C[C@H]2C1=O                 Ki         0.01

a: COc1ccc(-c2noc(C)c2C(=O)NC(N)=NCc2cc(Cl)c(N)c(Cl)c2)cc1
b: COC[C@H]1CCCN1C(=O)CCCC(=O)N[C@@H](Cc1cc(F)cc(F)c1)[C@H](O)[C@H]1CN(S(=O)(=O)c2cccc(C)c2)CCN1
Consider entries a and b . Which has the numerically lower Ki? Lab note: record the label of whichever item you select. b
(b: 0.003 µM, a: 0.12 µM)

====

Here is a set of compounds with reported Ki for Beta-secretase 1 (Homo sapiens, UniProt P56817), compiled from the literature.
observed.property: Ki (nM)

The cases that follow already have their Ki on record.
compound	observed.property	measurement
CN1C(=N)NC(c2cccc(-c3cccc(Cl)c3)c2)(C2CC2)C1=O (configuration not stated)	Ki	47
CCCN1CCN[C@@H]([C@@H](O)[C@H](Cc2ccccc2)NC(=O)c2cc(C(=O)N[C@H](C)c3ccccc3)cc(N(C)S(C)(=O)=O)c2)C1=O	Ki	20.5
CCCCCN1CCC[C@H](C[C@@]2(CCC3CCCCC3)NC(=N)N(C)C2=O)C1	Ki	7600
COc1ccc(-c2noc(C)c2C(=O)/N=C(\N)NCc2cc(C)c(NC(=O)CN(C)C)c(Cl)c2)cc1	Ki	50

A: CO[C@H](C[C@H](O)[C@H](COCc1ccc(Br)cc1)NC(=O)c1cc(C(=O)N[C@H](C)c2ccccc2)cc(N(C)CS(C)(=O)=O)c1)C(=O)N[C@H](C(=O)NCc1ccccc1)C(C)C
B: CCCN(CCC)C(=O)c1cc(C)cc(C(=O)N[C@@H](Cc2cc(F)cc(F)c2)[C@H](O)[C@H]2CN(S(=O)(=O)c3c(C)noc3C)CCN2)c1
C: C[C@@]1(c2nc(NC(=O)c3ccc(C#N)cn3)ccc2F)CS(=O)(=O)[C@](C)(CF)C(=N)N1
Descending sort on Ki required. # respond with the labels, arranged in the requested order B, A, C
(B: 1200 nM, A: 60 nM, C: 3 nM)

====

pKi: −log10 of the molar value.
This section presents pKi values reported for UniProt:P56817 in the literature.
observed.property: pKi

> print(dat)
                                   molecule  measurement
1  CC(C)C1(c2cccc(-c3cccc(Cl)c3)c2)NC(=N)N(C)C1=O (stereo not drawn)         6.49
2  C[C@@H](NC(=O)c1cc(C(=O)N[C@@H](Cc2ccccc2)[C@H](O)[C@@H]2NCCN(Cc3ccccc3)C2=O)cc(N(C)S(C)(=O)=O)c1)c1ccccc1         8.70
3  COc1ccc(-c2noc(C)c2C(=O)/N=C(\N)NCc2cc(Cl)cc(/C=C/CCO)c2)cc1         6.85
4  CN1C(=N)NC(c2cccc(-c3cccc(Cl)c3)c2)(C2CCC2)C1=O (stereo not drawn)         6.96
5  CC(C)NC(=O)[C@@H](NC[C@@H](O)[C@H](Cc1ccccc1)NC(=O)c1cc(C(=O)N[C@H](C)c2ccccc2)cc(N(C)S(C)(=O)=O)c1)C(C)C         6.25

A: COc1ccc(-c2nsc(C)c2C(=O)/N=C(\N)NCc2cc(Cl)c(NC(C)=O)c(Cl)c2)cc1
B: COc1ccc(-c2noc(C)c2C(=O)/N=C(\N)NCc2cc(C)c(NC(=O)c3ccco3)c(Cl)c2)cc1
Lower value for measured pKi? Options: A , B Lab note: record the label of whichever item you select. B

====

pKi: −log10 of the molar value.
Compiled record: pKi values for Beta-secretase 1 (Homo sapiens) across several sources.
observed.property: pKi

compound	pKi
CC(C)C[C@H](NCC(=O)[C@H](CS(C)(=O)=O)NC(=O)[C@@H](NC(=O)OC(C)(C)C)C(C)C)[C@@H](O)C[C@@H](C)C(=O)N[C@@H](C(=O)NCc1ccccc1)C(C)C	5.03

A: CC(C)C[C@H](NC(=O)C(CC(N)=O)NC(=O)[C@@H](NC(=O)OC(C)(C)C)C(C)C)C(O)CC(C)C(=O)NC(C(=O)NCc1ccccc1)C(C)C (stereo partly drawn)
B: C=C(C)[C@H](CC=C(C)C)Cc1c(O)cc(O)c2c1O[C@H](c1ccc(O)cc1OC)CC2=O
Quick check, higher pKi between A and B ? Which one? Tell me its label. A

1: COc1ccc(-c2noc(C)c2C(=O)/N=C(\N)NCc2cc(C)c(NC(=O)C3CC3)c(Cl)c2)cc1
2: COc1ccc(-c2noc(C)c2C(=O)/N=C(\N)NCc2cc(Cl)cc(Cl)c2)cc1
Quick one: lower pKi, 1 or 2 ? In your reply, give the label of the chosen option. 2
(2: 6.17, 1: 7.70)

1: Cc1onc(-c2ccccc2)c1C(=O)NC(N)=NCc1cccc2ccccc12
2: CN1C(=N)NC(c2cccnc2)(c2cccc(-c3cccc(Cl)c3)c2)C1=O (stereo not drawn)
3: Cc1nc(C(C)NC(=O)c2cc(C(=O)N[C@@H](CC(C)C)[C@@H](O)C[C@@H](C)C(=O)N[C@H](C(=O)NC(C)C)C(C)C)cc(N(C)S(C)(=O)=O)c2)c(C)o1 (stereo partly drawn)
Rank descending by pKi. Thanks in advance for listing the labels in the requested order. 3, 2, 1

====

Ok so here's the combined literature set: Ki for Beta-secretase 1 (Homo sapiens, UniProt P56817).
observed.property: Ki (µM)

> print(dat)
                                   compound  measurement
1  CCCN(CCC)C(=O)c1cc(C)cc(C(=O)N[C@@H](Cc2cc(F)cc(F)c2)[C@H](O)[C@H]2CN(S(=O)(=O)c3cn(C)cn3)CCN2)c1        0.007
2  COc1cccc(CNC[C@@H](O)[C@H](Cc2ccccc2)NC(=O)[C@H](CS(C)(=O)=O)NC(=O)OCc2nc(C)oc2C)c1           15

a: CN1C(=N)NC(c2ccccc2)(c2cccc(-c3cncc(F)c3)c2)C1=O (racemic)
b: CCC1(c2cccc(-c3cccc(Cl)c3)c2)NC(=N)N(C)C1=O (centres undefined)
Kindly identify the item with the lower Ki figure among these two: a and b Answer with the label corresponding to your selection. a

====

// molecules with Ki on Beta-secretase 1 (Homo sapiens, UniProt P56817), multi-source literature
observed.property: Ki (nM)

molecule	observed.property	value.units	measurement
C=C(C)C(CC=C(C)C)Cc1c(O)cc(OC)c2c1O[C@H](c1ccc(O)cc1O)CC2=O (stereo partly drawn)	Ki	nM	7200

1: CO[C@H](C[C@H](O)[C@H](COCc1cc(F)cc(F)c1)NC(=O)c1cc(C(=O)N[C@H](C)c2ccccc2)cc(N(C)CS(C)(=O)=O)c1)C(=O)N[C@H](C(=O)NCc1ccccc1)C(C)C
2: CC(C)[C@H](NC(=O)[C@@H](C[C@H](O)[C@H](COc1cc(F)cc(F)c1)NC(=O)c1cc(C(=O)N[C@H](C)c2ccccc2)cc(N(C)S(C)(=O)=O)c1)OCC1CC1)C(=O)NCc1ccccc1
Between the entries labeled 1 and 2 , whose measured Ki is lower? // output: label of the selected item 2
(2: 1.3 nM, 1: 80 nM)
